Target: human norepinephrine transporter (Homo sapiens, UniProt P23975)
Construct: isolate and amplify each of the three full-length cDNAs from an appropriate cDNA library; membrane preparation
Sequence (P23975 whole entry): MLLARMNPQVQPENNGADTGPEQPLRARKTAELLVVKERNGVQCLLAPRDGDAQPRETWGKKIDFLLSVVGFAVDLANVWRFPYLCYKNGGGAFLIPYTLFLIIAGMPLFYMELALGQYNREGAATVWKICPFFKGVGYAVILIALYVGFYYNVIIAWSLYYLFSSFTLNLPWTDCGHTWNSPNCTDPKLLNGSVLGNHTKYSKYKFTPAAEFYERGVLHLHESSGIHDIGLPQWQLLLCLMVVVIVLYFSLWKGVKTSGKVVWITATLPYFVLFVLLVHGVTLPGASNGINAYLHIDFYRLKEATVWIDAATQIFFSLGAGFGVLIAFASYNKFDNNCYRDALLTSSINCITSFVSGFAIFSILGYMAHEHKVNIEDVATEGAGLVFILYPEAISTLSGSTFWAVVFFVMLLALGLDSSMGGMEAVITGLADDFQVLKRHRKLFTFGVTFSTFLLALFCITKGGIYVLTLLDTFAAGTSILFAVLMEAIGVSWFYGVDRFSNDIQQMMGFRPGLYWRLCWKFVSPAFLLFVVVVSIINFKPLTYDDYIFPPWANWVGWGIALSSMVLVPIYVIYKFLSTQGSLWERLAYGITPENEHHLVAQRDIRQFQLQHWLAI
Assay: [3H]-nisoxetine scintillation proximity binding assay (norepinephrine binding assay)
Details: read-out: Ki (NET)
Description: Generation of Stable Cell-lines Expressing the Human Dopamine, Norepinephrine and Serotonin Transporters […] Cell pastes from large scale production of HEK-293 cells expressing cloned human norepinephrine transporters were homogenized in 4 volumes 50 mM Tris-HCl containing 300 mM NaCl and 5 mM KCl, pH 7.4. […] The protein concentration of the membrane preparation was determined using a bicinchoninic acid (BCA) protein assay reagent kit (available from Pierce). […]
Counter-ions that a name gives are not always drawn.
Recorded Metric: Ki (µM)

Molecule	Unit Annotation	Measured
CNC[C@@H](O)[C@@H](Oc1ccc(F)c2ccccc12)c1cccc(F)c1 [Example 32, Hydrochloride]	µM	0.0152
